# Test Protocol: duplex melting temperature (HRM, EvaGreen); higher = more stable duplex
# Experimental Context: duplex concentration 5 µM; backbone: PS-PS (both strands fully phosphorothioate)
// map duplex melting temperature onto a label; ranges lo: < 50 °C; mid: ≥ 50 °C and < 60 °C; hi: ≥ 60 °C

Use the examples below as a reference point.
1) GATGCCGCAGCGACCTG : hi
2) AGCACGGTGGTACAACA : mid

(Q) Dear colleague, I would appreciate it if you could identify the bin for `TCTACACCGCGA` and reply at your convenience.
(A) lo

(Q) Now try `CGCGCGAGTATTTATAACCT` .
(A) mid

---

# duplex melting temperature annotations
# Test Protocol: duplex melting temperature (HRM, EvaGreen); higher = more stable duplex
# Experimental Context: duplex concentration 20 µM; backbone: PS-PO (listed strand fully phosphorothioate, complement phosphodiester)
Lab note: write values as number then unit, every time.

Observe how each entry below is paired with its result.
1. CCACTAGCGGCGCCGTT : 77.3 °C
2. TCTCGCGGTTCCATTA : 66.6 °C
3. CAAGCCTCGATTTTGT : 63.1 °C
4. AACGAATGTCAGCAATT : 64.5 °C
5. CCGTTGCTGCTAGG : 65.8 °C
6. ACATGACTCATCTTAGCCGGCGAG : 76.4 °C
7. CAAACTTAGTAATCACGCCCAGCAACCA : 76.3 °C
8. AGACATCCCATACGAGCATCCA : 73.3 °C
9. ACGGGTCGTTCCGTG : 68 °C
10. CTAAACTGTTATAGCCGG : 64.4 °C

(Q) Sample `CACAGCGACATGTATGG` — what was its duplex melting temperature?
(A) 67.4 °C

(Q) Record: `TCTACACCGCGA`
(A) 63.1 °C

(Q) Same lookup for `AATGTCGAACAGCAATT` , please.
(A) 65.4 °C

(Q) Again, but for `CGGTGCTTTTGGTAGC`
(A) 64 °C

(Q) // query: `GTGAAACAATGCTGTAG`
(A) 62.4 °C

(Q) Now try `GAACCGTTGATGATCTC` .
(A) 63.1 °C

(Q) What about this sequence? `CCCAGGCCTCGGATTTA`
(A) 71 °C

(Q) Next up: `CCGCTCAGAGTAGAGA`
(A) 65.9 °C
